Experiment: self-splicing fitness, log relative to wild type (ln ratio); higher = more splicing; Tetrahymena group I intron in knt gene, E. coli kanamycin selection, DiMSum; sequences stand for … in CUCUCU…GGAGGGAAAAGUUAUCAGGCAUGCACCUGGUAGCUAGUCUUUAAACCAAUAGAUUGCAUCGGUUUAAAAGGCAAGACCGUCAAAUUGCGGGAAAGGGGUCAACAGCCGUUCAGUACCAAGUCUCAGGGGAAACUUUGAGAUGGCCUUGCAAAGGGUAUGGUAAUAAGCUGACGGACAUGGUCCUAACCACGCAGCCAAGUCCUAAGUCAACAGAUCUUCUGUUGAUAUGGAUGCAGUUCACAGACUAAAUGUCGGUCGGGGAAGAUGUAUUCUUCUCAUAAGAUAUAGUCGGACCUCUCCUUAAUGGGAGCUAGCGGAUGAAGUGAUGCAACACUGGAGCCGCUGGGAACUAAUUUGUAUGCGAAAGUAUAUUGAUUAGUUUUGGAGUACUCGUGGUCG;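 also: selection with 25 µg/mL kanamycin versus none on LB agar overnight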
Conditions: 30 °C
Classification by self-splicing fitness (ln) follows these ranges: L: < -3; M: ≥ -3 and < -2; H: ≥ -2

Worked cases, answers included:
AUUGAGCAAUAUUACGUCGA ... L
ACUAAGCAAUAUUACGCUAA ... L
UAGCAGCAAUAUUACGUGGC ... L
GUUCAGCAAUAUUACGGUUC ... H
CGGAAGCAAUAUUACGGCAG ... H

Enquiry: GET /class?item= `UAAUAGCAAUAUUACGUGGU`
Return: L

Enquiry: GET /class?item= `UCUAAGCAAUAUUACGCGCG`
Return: H

Enquiry: GET /class?item= `AAAGAGCAAUAUUACGGCUU`
Return: H

Enquiry: GET /class?item= `CUGGAGCAAUAUUACGGGGU`
Return: L

Enquiry: GET /class?item= `GUAUAGCAAUAUUACGAACC`
Return: M

Enquiry: GET /class?item= `AUAUAGCAAUAUUACGAAAC`
Return: M

Enquiry: GET /class?item= `UUGUAGCAAUAUUACGUUAG`
Return: M

Enquiry: GET /class?item= `GACUAGCAAUAUUACGACCC`
Return: H

Enquiry: GET /class?item= `CUCGAGCAAUAUUACGACGA`
Return: M

Enquiry: GET /class?item= `UGAUAGCAAUAUUACGCGAA`
Return: M

Enquiry: GET /class?item= `GCACAGCAAUAUUACGCCCU`
Return: H

Enquiry: GET /class?item= `UGGCAGCAAUAUUACGCGUC`
Return: L

Enquiry: GET /class?item= `CGAUAGCAAUAUUACGGGCG`
Return: H

Enquiry: GET /class?item= `UUAGAGCAAUAUUACGAAAA`
Return: H

Enquiry: GET /class?item= `UCUAAGCAAUAUUACGGUUC`
Return: L

Enquiry: GET /class?item= `GAGCAGCAAUAUUACGCGAU`
Return: L

Enquiry: GET /class?item= `ACUUAGCAAUAUUACGAAGA`
Return: H

Enquiry: GET /class?item= `AUCUAGCAAUAUUACGUGGA`
Return: M

Enquiry: GET /class?item= `GCGAAGCAAUAUUACGGCAU`
Return: H

Enquiry: GET /class?item= `GUUCAGCAAUAUUACGACGC`
Return: H

Enquiry: GET /class?item= `UAUGAGCAAUAUUACGGUAC`
Return: L

Enquiry: GET /class?item= `GGAUAGCAAUAUUACGAUAC`
Return: H

Enquiry: GET /class?item= `AAUAAGCAAUAUUACGCGAG`
Return: H

Measured values drawn from the supplement of paper PMC7877785 for this set.
